Source: the supplement of paper PMC4862054

Reported drug sensitivity score values for the following compounds.
# Tested on: HCC1937
# Measurement description: drug sensitivity score (DSS), CellTiter-Glo (DSS (AUC-based score)); higher = stronger drug effect (viability inhibition or cytotoxicity); extreme values may be limits of the assay
# Recorded conditions: incubation time: 72 h
Recorded endpoint: drug sensitivity score

INSERT INTO results (smiles_code, reported_measurement) VALUES
  ('Nc1nc(F)nc2c1ncn2[C@@H]1O[C@H](CO)[C@@H](O)[C@@H]1O', 0),
  ('C=CC(=O)Nc1cc2c(Nc3ccc(F)c(Cl)c3)ncnc2cc1OCCCN1CCOCC1', 5.34),
  ('COc1cc2c(Oc3ccc4[nH]c(C)cc4c3F)ncnc2cc1OCCCN1CCCC1', 0),
  ('O=C(/C=C/c1cccnc1)NCCCCC1CCN(C(=O)c2ccccc2)CC1', 21.4),
  ('C=CCc1cccc(/C=N/NC(=O)CN2CCN(Cc3ccccc3)CC2)c1O', 3.44),
  ('Cc1cnc(NC(=O)Nc2cc(Br)c(C)cc2OC[C@@H]2CNCCO2)cn1', 0),
  ('O=C(O)C(=O)O.[NH-][C@@H]1CCCC[C@H]1[NH-].[Pt+2]', 0),
  ('CC(=O)Nc1cccc(-n2c(=O)n(C3CC3)c(=O)c3c(Nc4ccc(I)cc4F)n(C)c(=O)c(C)c32)c1', 3.49),
  ('CC[C@H](C)C(=O)O[C@H]1C[C@H](O)C=C2C=C[C@H](C)[C@H](CC[C@@H](O)C[C@@H](O)CC(=O)O)[C@H]21', 3.68),
  ('O=C(O)C1(C(=O)O)CCC1.[NH2-].[NH2-].[Pt+2]', 0),
  ('N#Cc1ccc(C(c2ccc(C#N)cc2)n2cncn2)cc1', 0),
  ('Oc1ncc(N(CCCl)CCCl)c(O)n1', 0),
  ('CC1=C(/C=C/C(C)=C/C=C/C(C)=C/C(=O)O)C(C)(C)CCC1', 0);
